# Test system: NCl-A549
# Experiment Notes: MTT cell viability, NCl-A549 cells
# Assay type: cell-based, human
# Applied Conditions: Homo sapiens, NCl-A549 lung adenocarcinoma, p53 WT
Value Kind: EC50 (µM)

In [3]: df
Out[3]:
                                   compound  value_kind  experimental_value
0  CC(C)(C)C[C@@H]1N[C@@H](C(=O)N[C@H]2CC[C@H](O)CC2)[C@H](c2cccc(Cl)c2F)[C@]12C(=O)Nc1cc(Cl)ccc12 [MI-77301]        EC50                15.8

* * *

# System: MV4-11
# Experiment Notes: MTT cell viability, MV4-11 cells
# Format: cell-based, human
# Applied Conditions: Homo sapiens, MV4-11 childhood acute monocytic leukemia, p53 WT
Value Kind: EC50

In [3]: df
Out[3]:
                                 smiles_str  value_kind  experimental_value
0  CC(C)(C)C[C@@H]1N[C@@H](C(=O)N[C@H]2CC[C@H](O)CC2)[C@H](c2cccc(Cl)c2F)[C@]12C(=O)Nc1cc(Cl)ccc12        EC50              300 nM

* * *

# System: CFPAC-1
# Experiment Notes: MTT cell viability, CFPAC-1 cells
# Format: cell-based, human
# Applied Conditions: Homo sapiens, CFPAC-1 pancreatic ductal adenocarcinoma, p53 Mutant
Value Kind: EC50 (µM)

>>> print(df.to_string())
                                   molecule  system_under_test  experimental_value
0  CC(C)(C)C[C@@H]1N[C@@H](C(=O)N[C@H]2CC[C@H](O)CC2)[C@H](c2cccc(Cl)c2F)[C@]12C(=O)Nc1cc(Cl)ccc12 [MI-77301]            CFPAC-1                22.1
